assay.summary: Rat oral pharmacokinetic study
Format: in vivo, Sprague Dawley rats
measurement.context: Sprague Dawley; female rat, single PO 640 mg/kg of compound 9, 5% TPGS/5% PVP-K30/50 mM Citrate pH 5, analyte 9a in plasma, mean ± SD
readout.kind: half-life

compound.structure.string | readout.kind | reported.result
Cc1cc(F)ccc1Oc1cc(C(F)(F)F)ccc1C(=O)Nc1cc[nH]c(=O)c1 | half-life | 7.51 h

----------
assay.summary: Rat IV pharmacokinetic study
Format: in vivo, Sprague Dawley rats
measurement.context: Sprague Dawley; male rat, single IV bolus 1 mg/kg of compound 9, DMI vehicle, analyte 9a in plasma; read-out: t½ (converted)

compound | units.symbol | half-life
Cc1cc(F)ccc1Oc1cc(C(F)(F)F)ccc1C(=O)Nc1cc[nH]c(=O)c1 [Compound 9a] | min | 146
